Target or system: T1, hnRNP L RRM2 (residues 189-286) (human, UniProt P14866 189-286)
T1 construct: hnRNP L, human, RRM2 fragment, residues 189-286, amplified from a human brain cDNA library; Cloned into a modified pET28a vector without a thrombin cleavage site (p28a); also called hnRNP L RRM2 WT; source: E. coli BL21 (DE3), purified (Ni-NTA, size-exclusion chromatography)
T1 sequence (looked up): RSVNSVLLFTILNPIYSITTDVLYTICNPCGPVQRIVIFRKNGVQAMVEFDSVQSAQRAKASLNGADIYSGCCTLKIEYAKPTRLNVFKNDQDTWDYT
Procedure details: ITC; SETD2 peptides (about 600 µM, syringe) titrated into hnRNP L / hnRNP LL proteins (about 50 µM, cell); 20 °C; Microcal PEAQ-ITC; one-site binding model; mean of three independent experiments
Measurement setup: both partners purified
Reported endpoint: pKd
Would you please state pKd, meaning minus log10 of the concentration in mol/L, as a bare number?

[
  {
    "Binder": "SNPNAGKVLLPTP (also called truncated peptide; source: synthetic peptide) [SETD2 2180–2192 peptide]",
    "Quantitative readout": 4.94
  }
]

Now look at this one.
Need pKd, item YPPGYPMQAYVDPSNPNAGKVLLPTP (peptide, UniProt Q9BYW2 2167-2192, looked up, source: synthetic peptide) [SETD2 2167–2192 peptide] 5.23

Where do the numbers come from? From paper PMC8575775.
